As shown below, each of these molecules has a reported activity at 10 µM value.
- System: CAKI-1
- protocol.summary: NCI-60 one-dose SRB screening
- Type: cell-based
- assay.setup: Homo sapiens, CAKI-1, Renal Cancer, 10 µM one dose, 48 h, read-out: growth percentage
measured.property: activity at 10 µM

> print(dat)
                                    molecule  result
 1  Cc1nn(-c2ccccc2)c2nc(CCl)[nH]c(=O)c12 [13b]   99.6%
 2  Cc1nn(-c2ccc(Br)cc2)c2nc(C(F)(F)F)nc(Nc3ccc(NCc4c(-c5ccccc5)no[n+]4[O-])cc3)c12 [12c]     55%
 3  Cc1nn(-c2ccccc2)c2nc(C(F)(F)F)nc(Nc3ccc(NCc4c(-c5ccccc5)no[n+]4[O-])cc3)c12 [12a]     53%
 4  Cc1nn(-c2ccc(Br)cc2)c2ncnc(Nc3ccc(OCc4c(-c5ccccc5)no[n+]4[O-])cc3)c12 [6g]   84.9%
 5  Cc1nn(-c2ccc(Br)cc2)c2nc(CCl)[nH]c(=O)c12 [13c]   96.3%
 6  [O-][n+]1onc(-c2ccccc2)c1COc1ccc(Nc2ncnc3c2cnn3-c2ccc(Br)cc2)cc1 [6e]   82.1%
 7  Cc1nc(Nc2ccc(OCc3c(-c4ccccc4)no[n+]3[O-])cc2)c2c(C)nn(-c3ccccc3)c2n1 [6d]    101%
 8  Cc1nc(Nc2ccc(OCc3c(-c4ccccc4)no[n+]3[O-])cc2)c2c(C)nn(-c3ccc(Br)cc3)c2n1 [6h]   83.8%
 9  Cc1nc(Nc2ccc(OCc3c(-c4ccccc4)no[n+]3[O-])cc2)c2cnn(-c3ccc(Br)cc3)c2n1 [6f]   81.9%
10  Cc1nn(-c2ccccc2)c2ncnc(Nc3ccc(OCc4c(-c5ccccc5)no[n+]4[O-])cc3)c12 [6c]     86%
